Parameter IC50: see the listing below.
Test system: HGC-27
method-notes: Antiproliferative activity against human HGC-27 cells assessed as inhibition of cell proliferation incubated for 72 hrs by MTT assay
Assay type: functional, cell-based
run-conditions: HGC-27, 72 h

Field: example entries. Status: answers known.
CC(C)[C@]12O[C@H]1[C@@H]1O[C@@]13[C@@]1(C)CCC4=C([C@H](O)OC4=S)[C@@H]1C[C@@H]1O[C@@]13C2=O :: > 10 µM
CC(C)[C@]12O[C@H]1[C@@H]1O[C@]13[C@]1(O[C@H]1C[C@H]1C4=C(CC[C@@]13C)C(=S)O[C@H]4O)[C@H]2O :: > 10 µM

// field: IC50; key: CC(C)[C@]12O[C@H]1[C@@H]1O[C@]13[C@]1(O[C@H]1C[C@H]1C4=C(CC[C@@]13C)C(=S)O[C@H]4O)[C@@H]2O ; value = > 10 µM

----------
System: U-251
method-notes: Antiproliferative activity against human U-251 cells assessed as inhibition of cell proliferation incubated for 72 hrs by MTT assay
Format: functional, cell-based
run-conditions: U-251, 72 h
pIC50: −log10 of the molar value.
Here the recorded pIC50 is given for each entry.

// below: answered molecules
CC(C)[C@]12O[C@H]1[C@@H]1O[C@@]13[C@@]1(C)CCC4=C([C@H](O)OC4=S)[C@@H]1C[C@@H]1O[C@@]13C2=O :: < 5.00
CC(C)[C@]12O[C@H]1[C@@H]1O[C@]13[C@]1(O[C@H]1C[C@H]1C4=C(CC[C@@]13C)C(=S)O[C@H]4O)[C@@H]2O :: < 5.00

# input for lookup
pIC50 in this record for CC(C)[C@]12O[C@H]1[C@@H]1O[C@]13[C@]1(O[C@H]1C[C@H]1C4=C(CC[C@@]13C)C(=S)O[C@H]4O)[C@H]2O : < 5.00
